meta.source: patent US20250026813A1

# TESTED SYSTEM: SARS-CoV-2 spike protein receptor binding domain (RBD) (SARS-CoV-2, UniProt P0DTC2 319-541)
Quick list: Kd per entry.
Note to self: number, then unit, no commentary.

BINDER	REPORTED VALUE
IMPI-021 (antibody, V domains shown) VH: EVQLVESGGGLIQPGGSLRLSCAASGVTVSSNYMSWVRQAPGKGLEWVSVIYSGGSTFYADSVKGRFTISRDNSKNTLYLQMNSLRAEDTAVYYCARDLSYYGMDVWGQGTTVTVSS VL: DIQLTQSPSFLSASVGDRVTITCWASQGISSYLAWYQQKPGKAPKLLIYAASTLQSGVPSKFSGSGSGTEFTLTISSLQPEDFATYYCQQLNSYPCSFGQGTKLEIK	14.7 nM

For reference, reported Kd for IMPI-042 (antibody, V domains shown) VH: EVQLVESGGGLIQPGGSLRLSCAASGLTVSSNYMSWVRQAPGKGLEWVSIIYSGGSTYYADSVKGRFTISRDNSKNTLYLQMNSLRAEDTAVYYCARLGGYYYYGMDVWGQGTTVTVSS VL: DIQMTQSPSSLSASVGERVTITCQASQDIRNYLNWYQKKPGKAPKLLIYDSSNLETGVPSRFSGGGSGTDFTFTISSLQPEDIATYYCQQYDNLPITFGQGTRLEIK stands at 1.87 nM

For reference, reported Kd for IMPI-017 (antibody, V domains shown) VH: EVQLVESGGGLIQPGGSLRLSCAAAGLTVSSNYMNWVRQVPGKGLEWVSVIYSGGSTYYADSVKGRFTISRDNSKNTLYLQMNSLRAEDTAVYYCARDLGTLGMDVWGQGTTVTVSS VL: DIQLTQSPSFLSASVGDRVTITCWASQGISTYLAWYQQKPGKAPKLLIYAASTLQSGVPSRFSGSGSGTEFTLTISSLQPEDFATYYCQQLNSYLPTFGQGTKVEIK stands at 2.25 nM
